# assay_system: UniProt:Q92731
# Sequence (Q92731 whole entry): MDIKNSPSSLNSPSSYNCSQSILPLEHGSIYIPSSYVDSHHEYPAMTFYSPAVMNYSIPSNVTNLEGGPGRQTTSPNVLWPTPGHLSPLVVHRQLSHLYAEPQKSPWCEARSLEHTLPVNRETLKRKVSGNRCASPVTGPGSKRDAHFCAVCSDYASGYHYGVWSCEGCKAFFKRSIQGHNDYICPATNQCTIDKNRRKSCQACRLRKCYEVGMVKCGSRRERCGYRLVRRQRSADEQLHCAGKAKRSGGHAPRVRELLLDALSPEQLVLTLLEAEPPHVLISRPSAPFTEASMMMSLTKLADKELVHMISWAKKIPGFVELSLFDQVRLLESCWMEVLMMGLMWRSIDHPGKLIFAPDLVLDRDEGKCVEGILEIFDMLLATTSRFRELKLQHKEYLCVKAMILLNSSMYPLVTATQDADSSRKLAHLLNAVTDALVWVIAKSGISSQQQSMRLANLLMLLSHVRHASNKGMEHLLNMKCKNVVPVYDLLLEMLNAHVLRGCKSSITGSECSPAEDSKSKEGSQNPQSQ
# assay_procedure: ERβ agonist assay (functional activity at estrogen receptors, FIG. 1)
# condition_notes: read-out: EC50 ERβ agonism
pEC50: −log10 of the molar value.
attribute_measured: pEC50

P = C[C@]12CC[C@@]3(C)C(=C1C[C@@H](O)C2)CCc1cc(O)ccc13
Q = C[C@@]12CC[C@]3(C)C(=C1C[C@H](O)C2)CCc1cc(O)ccc13
When the recorded pEC50 values are compared, which is smaller: that of P or that of Q ? Answer with the label corresponding to your selection.
Q
(Q: 8.72, P: 10.30)
